System: NCI-H460 lung
protocolText: NCI-60 one-dose screen, 48 h
conditionsUsed: 10 µM unless noted
About 83,000 compounds went through this panel and 20% of them were active in at least one assay; those are over-represented in the sample as a whole. Calls of active or inactive are those of the source. The calls were made as follows: active = growth percent below 10; inactive = the rest.
Returns: one label drawn from Yes (active), No (inactive)

IN: // return assay outcome for Cc1ccc(/C=C/c2n(Cc3ccc4ccccc4c3)c3ccccc3[n+]2Cc2ccc3ccccc3c2)cc1
OUT: Yes

IN: // return assay outcome for N#Cc1cnn(C(=O)c2ccccc2Br)c1NC(=O)c1ccc(Br)cc1Cl
OUT: No

IN: // return assay outcome for C=C1CC[C@@H]2[C@]3(C)COC(c4cn[nH]c4-c4ccccc4)O[C@@H]3CC[C@@]2(C)[C@@H]1C/C=C1/C(=O)OCC1O (some centres undefined)
OUT: No

IN: // return assay outcome for COc1ccc(C2=NN(c3ccccc3)C(c3ccc(OCc4ccccc4)c(OC)c3)C2)cc1OC (centres undefined)
OUT: No

---

Tested on: SF-295 CNS
protocolText: NCI-60 one-dose screen, 48 h
conditionsUsed: 10 µM unless noted
About 83,000 compounds went through this panel and 20% of them were active in at least one assay; those are over-represented in the sample as a whole. Active and inactive are the calls of the source. Rule for the calls: active = growth percent below 10; inactive = the rest.
Returns: one label drawn from label 1 (active), label 0 (inactive)

IN: // return assay outcome for CCOC(=O)C(N=Nc1ccc(S(=O)(=O)N=C(N)N)cc1)C(C)=O (stereo unspecified)
OUT: label 0

IN: // return assay outcome for O=C(/C=C/c1cccc(OCc2ccc(F)cc2)c1)c1nc2ccccc2[nH]1
OUT: label 0

IN: // return assay outcome for COc1ccc(C(=O)/C=C/c2ccc(Cl)c(Cl)c2)cc1S(N)(=O)=O
OUT: label 1

IN: // return assay outcome for CN(C)c1ccnc(CNCCSC2(c3ccc(C(F)(F)F)cc3)c3ccccc3C=Cc3ccccc32)c1
OUT: label 1

IN: // return assay outcome for Cc1cccc(NC(=O)CN2CCN(c3ncnc4c3cnn4-c3ccccc3)CC2)c1
OUT: label 0

IN: // return assay outcome for C=C1CC[C@@H]2[C@]3(C)COC(c4cn[nH]c4-c4ccc(OC)cc4)O[C@@H]3CC[C@@]2(C)[C@@H]1C/C=C1/C(=O)OCC1O (stereo partly specified)
OUT: label 1

IN: // return assay outcome for Cc1ccc(Cc2cnc(NC(=O)c3ccc(/C=C4\SC(=S)N(C)C4=O)cc3)s2)cc1
OUT: label 1

IN: // return assay outcome for CCOc1ccc(C(=O)NC(=S)Nc2ccc(S(N)(=O)=O)cc2)cc1
OUT: label 0

IN: // return assay outcome for C=CC[N+](C)(C)CCn1c2ccccc2c2nc3cc(C)c(C)cc3nc21
OUT: label 0

IN: // return assay outcome for O=C(COc1ccc(NC(=O)Nc2ccccc2)cc1)N=Nc1c(O)[nH]c2ccc([N+](=O)[O-])cc12
OUT: label 0

IN: // return assay outcome for C=C1CCC2C3(C)COC(c4ccccc4F)OC3CCC2(C)C1CC(O)C1=CCOC1=O (stereo unspecified)
OUT: label 0

IN: // return assay outcome for CCCSc1nc(NCCc2c[nH]c3ccccc23)c(C#N)c(-c2ccccc2)n1
OUT: label 0

IN: // return assay outcome for CCOC(=O)/C=C/c1cccc2c1C(=O)NC(C)(c1cc3cc(Cl)ccc3oc1=O)N2 (stereo unspecified)
OUT: label 0

IN: // return assay outcome for COc1ccc(C(=O)/C=C/c2cccc(Cl)c2)cc1S(N)(=O)=O
OUT: label 1

IN: // return assay outcome for O=C(c1ccccc1)c1ccc2nc(-c3cccc(Cl)c3)[nH]c2c1
OUT: label 0

IN: // return assay outcome for CC1(c2cc3cc(Br)ccc3oc2=O)NC(=O)c2c(/C=C/C(=O)OC3CC4CCC3(C)C4(C)C)cccc2N1 (stereo unspecified)
OUT: label 0

IN: // return assay outcome for CC12CC[C@@H]3[C@]4(C)COC(c5c(F)cccc5F)O[C@@H]4CC[C@@]3(C)[C@@H]1CC(C1=CCOC1=O)O2 (stereo partly specified)
OUT: label 0

IN: // return assay outcome for CCCCCCCCc1ccc(S(=O)(=O)Nc2ccc(CC)cc2C(=O)O)cc1
OUT: label 0

IN: // return assay outcome for C=C1CCC2C3(C)COC(c4cccc(F)c4)OC3CCC2(C)C1C/C=C1/C(=O)OCC1O (stereo unspecified)
OUT: label 1

IN: // return assay outcome for Nc1nc(-c2ccccc2)c(N=Nc2ccc(Cl)cc2[N+](=O)[O-])s1
OUT: label 0

IN: // return assay outcome for C[C@H](Nc1nc(NCCc2ccccc2)nc2ccccc12)c1ccccc1
OUT: label 1

IN: // return assay outcome for O=C(c1ccc(OCCN2CCOCC2)cc1)C1[C@H](c2ccc(Cl)cc2)[C@@H](c2ccccc2)NC12C(=O)Nc1ccc(Cl)cc12 (stereo partly specified)
OUT: label 0

IN: // return assay outcome for COc1cc(C2CC(c3cc(OC)c(OC)c(OC)c3)=Nc3c(N)nc(N)nc3N2)ccc1Oc1nc(NCCO)nc(N2CCOCC2)n1 (stereo unspecified)
OUT: label 0

IN: // return assay outcome for Cn1cc(-c2nnc(N)nc2-c2c[nH]c3ccc(Br)cc23)c2cc(Br)cnc21
OUT: label 0

IN: // return assay outcome for O=C(Cn1c2c(sc1=O)[C@H]1[C@@H](O)[C@@H](O)[C@H](O)[C@@H]1CS2)N1CCOCC1
OUT: label 0

IN: // return assay outcome for CC1=C(C(=O)OC(C)C)C(c2cccc(O)c2)NC(=S)N1 (stereo unspecified)
OUT: label 0

IN: // return assay outcome for C#CCOc1cc(N(CC)CC)ccc1C(C(=O)NC(C)(C)C)N(C(=O)C1CCc2cc(F)ccc2O1)c1ccc(Br)cc1 (stereo unspecified)
OUT: label 0

IN: // return assay outcome for COc1ccc(CCC2c3c(cc4c(c3OC)OCO4)CCN2C)cc1 (stereo unspecified)
OUT: label 1

IN: // return assay outcome for COc1ccc2[nH]cc(-c3nnc(N)nc3-c3c[nH]c4ncc(Br)cc34)c2c1
OUT: label 0

IN: // return assay outcome for C/C(=N\N=C1/C(=O)Nc2ccccc21)c1ccc2c(c1)Nc1ccccc1S2
OUT: label 0

IN: // return assay outcome for COc1ccc(C(=O)/C=C/c2cccc(Br)c2)cc1S(N)(=O)=O
OUT: label 1

IN: // return assay outcome for O=C1CCCc2cc(OCC(=O)N3CCCCC3)ccc2N1
OUT: label 0

IN: // return assay outcome for C=C1CC[C@@H]2[C@]3(C)COC(c4cn(-c5ccccc5)nc4-c4cccc([N+](=O)[O-])c4)O[C@@H]3CC[C@@]2(C)[C@@H]1C/C=C1/C(=O)OC[C@H]1O (stereo partly specified)
OUT: label 1

IN: // return assay outcome for N/C(=N\N=C\c1ccc([N+](=O)[O-])cc1)c1c(N)nc(=S)[nH]c1-c1ccc(Cl)cc1Cl
OUT: label 0

IN: // return assay outcome for CC12CC[C@@H]3[C@]4(C)COC(c5cn[nH]c5-c5cccc(Br)c5)O[C@@H]4CC[C@@]3(C)[C@@H]1CC(C1=CCOC1=O)O2 (stereo partly specified)
OUT: label 0

IN: // return assay outcome for COc1cc(OC)cc(C(=O)Nc2cccc(-c3cn(-c4ccc(S(N)(=O)=O)cc4)nn3)c2)c1
OUT: label 0

---

System: IGROV1 ovarian
protocolText: NCI-60 one-dose screen, 48 h
conditionsUsed: 10 µM unless noted
Compounds without any hit were thinned out: in the full panel of roughly 83,000, 20% have a hit. Activity calls are given as the source filed them. Rule for the calls: active = growth percent below 10; inactive = the rest.
Returns: one label drawn from active, inactive

IN: // return assay outcome for CC(=O)NNc1ccc2nnc(-c3ccccc3)n2n1
OUT: inactive

IN: // return assay outcome for COc1ccc(NC(=O)Nc2ccc(OCc3ccc(F)cc3)cc2)cc1
OUT: inactive

IN: // return assay outcome for O=C(CN1C(=O)/C(=C/c2ccccc2F)SC1=S)N1CCOCC1
OUT: inactive

IN: // return assay outcome for O=C(Nc1ccc(C(F)(F)F)cc1)Nc1ccc2oc(=O)ccc2c1
OUT: inactive

IN: // return assay outcome for C=C1CC[C@@H]2[C@]3(C)COC(c4ccco4)O[C@@H]3CC[C@@]2(C)[C@@H]1C/C=C1/C(=O)OCC1OC(C)=O (stereo not given in full)
OUT: active

---

Tested on: UACC-62 melanoma
protocolText: NCI-60 one-dose screen, 48 h
conditionsUsed: 10 µM unless noted
The panel holds about 83,000 compounds, 20% with a hit somewhere; the sample as a whole holds those more often. Active and inactive are the calls of the source. The calls were made as follows: active = growth percent below 10; inactive = the rest.
Returns: one label drawn from active, inactive

IN: // return assay outcome for COc1ccc2c(c1)c(-c1cc3nc(-c4cn(C)c5ncccc45)cc(N)n3n1)cn2C
OUT: active

IN: // return assay outcome for COc1ccc(NC(=O)Cn2c(O)c(N=Nc3ccc(S(N)(=O)=O)cc3)c3ccccc32)cc1
OUT: inactive

IN: // return assay outcome for N#Cc1ccc(C(=O)Nn2c(N)cc3ccccc3c2=O)cc1
OUT: inactive

IN: // return assay outcome for N#Cc1c(NCc2ccccc2)n[nH]c1Nc1ccccc1
OUT: inactive

IN: // return assay outcome for O=c1cc(-c2ccccc2)oc2cc(OCCCC[P+](c3ccccc3)(c3ccccc3)c3ccccc3)cc(O)c12
OUT: active

IN: // return assay outcome for O=c1[nH]c(=O)c2c(-c3cc4ccccc4oc3=O)ccnc2[nH]1
OUT: inactive

IN: // return assay outcome for C#CCOc1ccc(/C=N/Nc2nc(-c3cc4cc(OC)ccc4oc3=O)cs2)cc1OC
OUT: inactive

IN: // return assay outcome for CN(C)c1ccnc(NCCCSC(c2ccccc2)(c2ccccc2)c2ccccc2)c1
OUT: inactive

IN: // return assay outcome for O=C(N=Nc1c(O)[nH]c2ccc([N+](=O)[O-])cc12)c1ccc2nc(-c3ccccc3)[nH]c2c1
OUT: inactive

IN: // return assay outcome for CCCCSc1nc(NCCc2c[nH]c3ccccc23)c(C#N)c(-c2ccc(F)cc2)n1
OUT: inactive

IN: // return assay outcome for O=C(N=Nc1c(O)[nH]c2ccc(Cl)cc12)c1ccc2nc(-c3ccccc3)[nH]c2c1
OUT: inactive

IN: // return assay outcome for COc1cc2c(c(OC)c1OC)C(=O)CC(c1cccc(NC(=O)c3cc(N)ccc3Cl)c1)O2 (centres undefined)
OUT: inactive

IN: // return assay outcome for Cc1ccc(C(SCCNCc2cc(N(C)C)ccn2)(c2ccccc2)c2ccccc2)cc1
OUT: active

IN: // return assay outcome for CCOC(=O)c1ccc(Nc2nc(NN)nc(-c3ccc(OC)cc3)c2C#N)cc1
OUT: inactive

IN: // return assay outcome for Cc1nc(Nc2ncc(C(=O)Nc3c(C)cccc3Cl)s2)cc(N2CCN(CCCNC(=O)COc3ccc(C4CCC(=O)NC4=O)cc3)CC2)n1 (centres undefined)
OUT: inactive

IN: // return assay outcome for COc1ccc(-c2cc(C(=O)NCc3ccccc3)nn2-c2ccc(S(C)(=O)=O)cc2)cc1OC
OUT: inactive

IN: // return assay outcome for COc1cc2c3c(n(CCCN4CCC[C@@H]4CO)c(=O)c2cc1OC)-c1cc2c(cc1C3=O)OCO2
OUT: inactive

IN: // return assay outcome for CC(=O)N1CCN(Cc2ccc3c(NNC(=O)c4cnccn4)nc4cc(F)ccc4n23)CC1
OUT: active

IN: // return assay outcome for Cc1ccc(-n2c(-c3cc4ccccc4nc3Cl)noc2=O)cc1
OUT: inactive
